Tested on: PI3Kδ-AKT pathway endogenously expressed on THP-1 cells
assay text: PI3Kδ enzyme inhibitory activity in the THP-1 assay (M-CSF stimulated pAKT, HTRF)
Assay type: cell-based
details: ratio THP-1 IC50 / Delta Ki
Parameter: Delta cell drop-off (Cellular/enzymatic activity = THP-1 IC50 nM/Delta Ki nM). Scope: all listed entries.
quantity kind: Delta cell drop-off (Cellular/enzymatic activity = THP-1 IC50 nM/Delta Ki nM)

compound	readout value
CC(c1oc(=O)c2ccccc2c1-c1ccc(F)c(CN2CCN(C)CC2)c1)n1nc(-c2cncc(O)c2)c2c(N)ncnc21 (centres unmarked)	3.6
CC(c1oc(=O)c2ccccc2c1-c1cccc([C@H]2CCCN2C)c1)n1nc(-c2cncc(O)c2)c2c(N)ncnc21 (single isomer, unassigned)	10
CC(c1oc(=O)c2ccccc2c1-c1cccc(CN2CCN(C)CC2)c1)n1nc(-c2cc(O)cc(F)c2)c2c(N)ncnc21 (single isomer, unassigned) [Comparative example 1, reference compound]	1.6
CC(c1oc(=O)c2ccccc2c1-c1ccc(Cl)c(CN(C)C)c1)n1nc(-c2cncc(O)c2)c2c(N)ncnc21 (centres unmarked)	9.7
CC(c1oc(=O)c2ccccc2c1-c1cccc(CN(C)C)c1)n1nc(-c2cncc(O)c2)c2c(N)ncnc21 (single isomer, unassigned)	1.2
CC(c1oc(=O)c2ccccc2c1-c1cc(F)cc(CN2CCN(C)CC2)c1)n1nc(-c2cncc(O)c2)c2c(N)ncnc21 (centres unmarked)	7.5
CC(c1cccc(-c2c(C(C)n3nc(-c4cncc(O)c4)c4c(N)ncnc43)oc(=O)c3ccccc23)c1)N(C)C (centres unmarked)	4.9
CC(c1oc(=O)c2ccccc2c1-c1cccc(CN2CCN(C)CC2)c1)n1nc(-c2cncc(O)c2)c2c(N)ncnc21 (single isomer, unassigned)	3.1

----------
target under test: PI3Kδ (Homo sapiens, UniProt O00329)
Construct: purchased Millipore Ltd (Billerica, MA)
Sequence (O00329 whole entry): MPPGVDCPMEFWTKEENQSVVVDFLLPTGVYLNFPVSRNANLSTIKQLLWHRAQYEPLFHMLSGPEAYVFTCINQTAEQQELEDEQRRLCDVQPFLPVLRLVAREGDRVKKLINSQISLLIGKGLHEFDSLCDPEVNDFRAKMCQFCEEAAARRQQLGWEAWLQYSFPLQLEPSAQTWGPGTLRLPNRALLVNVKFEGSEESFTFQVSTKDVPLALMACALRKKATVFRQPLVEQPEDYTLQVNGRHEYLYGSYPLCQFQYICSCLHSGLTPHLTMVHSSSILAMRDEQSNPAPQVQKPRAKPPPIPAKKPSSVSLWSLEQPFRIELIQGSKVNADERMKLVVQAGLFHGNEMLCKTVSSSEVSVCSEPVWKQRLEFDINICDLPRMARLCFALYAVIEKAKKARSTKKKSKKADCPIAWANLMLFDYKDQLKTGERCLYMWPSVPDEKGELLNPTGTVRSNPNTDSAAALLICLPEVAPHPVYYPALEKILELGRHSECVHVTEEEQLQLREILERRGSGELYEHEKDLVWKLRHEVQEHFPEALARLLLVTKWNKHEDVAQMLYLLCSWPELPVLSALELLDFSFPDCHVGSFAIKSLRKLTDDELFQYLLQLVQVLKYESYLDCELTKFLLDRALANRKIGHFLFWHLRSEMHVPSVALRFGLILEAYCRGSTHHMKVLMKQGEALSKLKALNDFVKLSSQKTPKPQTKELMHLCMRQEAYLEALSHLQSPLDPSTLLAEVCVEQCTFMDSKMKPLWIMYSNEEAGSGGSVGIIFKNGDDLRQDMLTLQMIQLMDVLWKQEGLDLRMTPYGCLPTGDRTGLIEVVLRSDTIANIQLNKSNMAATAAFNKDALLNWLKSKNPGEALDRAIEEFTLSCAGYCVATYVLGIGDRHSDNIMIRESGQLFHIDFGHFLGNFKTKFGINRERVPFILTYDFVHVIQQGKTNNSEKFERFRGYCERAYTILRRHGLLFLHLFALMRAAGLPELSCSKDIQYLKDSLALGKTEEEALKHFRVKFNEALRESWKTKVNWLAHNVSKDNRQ
Sequence (P27986 whole entry partner): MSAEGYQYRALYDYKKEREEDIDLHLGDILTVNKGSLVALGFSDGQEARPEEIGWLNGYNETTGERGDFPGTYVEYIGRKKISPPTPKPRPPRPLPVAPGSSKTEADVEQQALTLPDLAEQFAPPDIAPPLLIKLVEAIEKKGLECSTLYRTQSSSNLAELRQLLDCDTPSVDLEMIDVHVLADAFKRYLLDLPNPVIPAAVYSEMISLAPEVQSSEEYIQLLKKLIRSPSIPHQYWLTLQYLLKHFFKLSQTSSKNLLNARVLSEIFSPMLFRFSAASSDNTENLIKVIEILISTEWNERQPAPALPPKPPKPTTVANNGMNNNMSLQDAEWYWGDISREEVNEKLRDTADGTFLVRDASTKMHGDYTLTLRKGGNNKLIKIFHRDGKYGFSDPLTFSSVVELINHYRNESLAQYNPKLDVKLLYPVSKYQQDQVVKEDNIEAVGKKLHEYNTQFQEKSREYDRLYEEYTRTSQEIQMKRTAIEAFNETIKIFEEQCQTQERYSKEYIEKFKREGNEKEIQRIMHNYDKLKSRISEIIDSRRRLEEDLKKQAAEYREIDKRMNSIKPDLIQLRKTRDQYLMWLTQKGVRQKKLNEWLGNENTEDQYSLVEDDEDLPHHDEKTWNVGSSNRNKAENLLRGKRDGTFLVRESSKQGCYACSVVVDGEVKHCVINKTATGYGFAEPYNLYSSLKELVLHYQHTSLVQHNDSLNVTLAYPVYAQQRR
assay text: PI3K enzyme inhibitory activity in the cell free assay (ADP-Glo Kinase Assay)
Type: biochemical
details: cell free enzymatic assay, ATP 80 μM; read-out: Enzymatic Delta IC50
Values of IC50 strictly less than 0.8 nM map to Fulfilled, and values of at least 0.8 nM map to Not fulfilled.

compound	cat
CC(c1oc(=O)c2ccccc2c1-c1ccc(Cl)c(CN(C)C)c1)n1nc(-c2cncc(O)c2)c2c(N)ncnc21 (stereo not drawn) [Example 3]	Fulfilled
CC(c1oc(=O)c2ccccc2c1-c1ccc(F)c(CN2CCN(C)CC2)c1)n1nc(-c2cncc(O)c2)c2c(N)ncnc21 (stereo not drawn) [Example 5]	Not fulfilled
CC(c1oc(=O)c2ccccc2c1-c1cccc(CN2CCN(C)CC2)c1)n1nc(-c2cc(O)cc(F)c2)c2c(N)ncnc21 (single isomer, unassigned) [Comparative example 1, reference compound]	Not fulfilled
CC(c1cccc(-c2c(C(C)n3nc(-c4cncc(O)c4)c4c(N)ncnc43)oc(=O)c3ccccc23)c1)N(C)C (stereo not drawn) [Example 7]	Not fulfilled
CC(c1oc(=O)c2ccccc2c1-c1cccc([C@H]2CCCN2C)c1)n1nc(-c2cncc(O)c2)c2c(N)ncnc21 (single isomer, unassigned) [Example 4a]	Fulfilled

----------
Tested on: PI3Kδ-AKT pathway endogenously expressed on THP-1 cells
assay text: PI3Kδ enzyme inhibitory activity in the THP-1 assay (M-CSF stimulated pAKT, HTRF)
Format: cell-based
details: Homo sapiens; THP-1 cells, M-CSF 2.5 ng/mL, pAKT Ser473; read-out: THP-1 IC50 nM Cellular

compound	target under test	IC50, nM
CC(c1oc(=O)c2ccccc2c1-c1cccc(CN2CCN(C)CC2)c1)n1nc(-c2cncc(O)c2)c2c(N)ncnc21 (single isomer, unassigned) [Example 1a]	PI3Kδ-AKT pathway endogenously expressed on THP-1 cells	2.8
CC(c1oc(=O)c2ccccc2c1-c1ccc(F)c(CN2CCN(C)CC2)c1)n1nc(-c2cncc(O)c2)c2c(N)ncnc21 (stereo not shown) [Example 5]	PI3Kδ-AKT pathway endogenously expressed on THP-1 cells	1.8
CC(c1cccc(-c2c(C(C)n3nc(-c4cncc(O)c4)c4c(N)ncnc43)oc(=O)c3ccccc23)c1)N(C)C (stereo not shown) [Example 7]	PI3Kδ-AKT pathway endogenously expressed on THP-1 cells	3.9
CC(c1oc(=O)c2ccccc2c1-c1cccc(CN(C)C)c1)n1nc(-c2cncc(O)c2)c2c(N)ncnc21 (single isomer, unassigned) [Example 2a]	PI3Kδ-AKT pathway endogenously expressed on THP-1 cells	0.6
CC(c1oc(=O)c2ccccc2c1-c1cc(F)cc(CN2CCN(C)CC2)c1)n1nc(-c2cncc(O)c2)c2c(N)ncnc21 (stereo not shown) [Example 6]	PI3Kδ-AKT pathway endogenously expressed on THP-1 cells	3
CC(c1oc(=O)c2ccccc2c1-c1ccc(Cl)c(CN(C)C)c1)n1nc(-c2cncc(O)c2)c2c(N)ncnc21 (stereo not shown) [Example 3]	PI3Kδ-AKT pathway endogenously expressed on THP-1 cells	3.9
CC(c1oc(=O)c2ccccc2c1-c1ccccc1)n1nc(-c2cncc(O)c2)c2c(N)ncnc21 (single isomer, unassigned) [Comparative example 2, reference compound]	PI3Kδ-AKT pathway endogenously expressed on THP-1 cells	1.6
CC(c1oc(=O)c2ccccc2c1-c1cccc([C@H]2CCCN2C)c1)n1nc(-c2cncc(O)c2)c2c(N)ncnc21 (single isomer, unassigned) [Example 4a]	PI3Kδ-AKT pathway endogenously expressed on THP-1 cells	1
CC(c1oc(=O)c2ccccc2c1-c1cccc(CN(C)C)c1)n1nc(-c2cc(O)cc(F)c2)c2c(N)ncnc21 (single isomer, unassigned) [Comparative example 3, reference compound]	PI3Kδ-AKT pathway endogenously expressed on THP-1 cells	1.5
CC(c1oc(=O)c2ccccc2c1-c1cccc(CN2CCN(C)CC2)c1)n1nc(-c2cc(O)cc(F)c2)c2c(N)ncnc21 (single isomer, unassigned) [Comparative example 1, reference compound]	PI3Kδ-AKT pathway endogenously expressed on THP-1 cells	1.8

----------
target under test: PI3Kδ (Homo sapiens, UniProt O00329)
assay text: PI3K enzyme inhibitory activity in the cell free assay (ADP-Glo Kinase Assay)
details: cell free enzymatic assay; read-out: Enzymatic Delta Ki
Note to self: Ki under 0.4 nM means True, ties and anything higher get False.

molecule	cat
CC(c1oc(=O)c2ccccc2c1-c1cccc(CN2CCN(C)CC2)c1)n1nc(-c2cc(O)cc(F)c2)c2c(N)ncnc21 (single isomer, unassigned) [Comparative example 1, reference compound]	False
CC(c1oc(=O)c2ccccc2c1-c1ccc(F)c(CN2CCN(C)CC2)c1)n1nc(-c2cncc(O)c2)c2c(N)ncnc21 (stereo not drawn) [Example 5]	False
CC(c1cccc(-c2c(C(C)n3nc(-c4cncc(O)c4)c4c(N)ncnc43)oc(=O)c3ccccc23)c1)N(C)C (stereo not drawn) [Example 7]	False
CC(c1oc(=O)c2ccccc2c1-c1cccc([C@H]2CCCN2C)c1)n1nc(-c2cncc(O)c2)c2c(N)ncnc21 (single isomer, unassigned) [Example 4a]	True
